- TESTED SYSTEM: T1, human DLL3 on DLL3-expressing tumor cell lines (human, UniProt Q9NYJ7 27-618)
- T1 sequence: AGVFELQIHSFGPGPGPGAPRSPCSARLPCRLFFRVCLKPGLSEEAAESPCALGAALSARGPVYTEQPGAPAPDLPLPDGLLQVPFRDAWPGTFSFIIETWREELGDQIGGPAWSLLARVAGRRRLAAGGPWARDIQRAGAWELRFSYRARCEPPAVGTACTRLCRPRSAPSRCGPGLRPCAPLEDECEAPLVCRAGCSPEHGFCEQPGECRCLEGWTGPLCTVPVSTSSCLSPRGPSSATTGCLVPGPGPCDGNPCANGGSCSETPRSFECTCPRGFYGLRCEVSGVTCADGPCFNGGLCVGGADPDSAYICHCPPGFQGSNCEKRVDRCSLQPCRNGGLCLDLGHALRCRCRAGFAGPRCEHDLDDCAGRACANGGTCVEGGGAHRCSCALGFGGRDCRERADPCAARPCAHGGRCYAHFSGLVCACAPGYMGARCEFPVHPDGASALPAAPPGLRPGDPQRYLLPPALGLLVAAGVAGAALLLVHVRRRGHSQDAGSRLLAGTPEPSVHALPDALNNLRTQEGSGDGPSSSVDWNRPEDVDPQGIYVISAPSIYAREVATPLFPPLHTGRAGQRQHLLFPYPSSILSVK
- PROTOCOL: cell-based or functional assay
I would appreciate it if you labelled entries MET when DMS-153 TDCC EC50 is 60 pM or higher, otherwise NOT MET.

Reference set (5 entries):
Check the entry 3H06 anti-DLL3 trispecific protein (other, not shown: linker 1808, anti-albumin sdAb, linker 1808, anti-CD3 fragment, His6 1819) EVQLVESGGGLVQPGGSLTLSCAASGSSVSQLSMAWYRQAPGKKRELVAGISADGSTDYFDSVKGRFTISRDNAKNSVYLQMNSLRAEDTAVYYCYAYRWTTRGTYWGQGTLVTVSS : does DMS-153 TDCC EC50 equal or exceed 60 pM?
MET

Record 2E05 anti-DLL3 trispecific protein (other, not shown: linker 1808, anti-albumin sdAb, linker 1808, anti-CD3 fragment, His6 1819) EVQLVESGGGLVQPGGSLTLSCVASGSPSSINAYGWYRRAPGKQRELVAGISSDGSKVYSDSVKGRFTISRDNAKNSVYLQMNSLRAEDTAVYYCYYFRTVSGSSMSYWGQGTLVTVSS ; criterion: DMS-153 TDCC EC50 no lower than 60 pM. Met?
NOT MET

Say whether 1A011 anti-DLL3 trispecific protein (other, also called 1A11; not shown: linker 1808, anti-albumin sdAb, linker 1808, anti-CD3 fragment, His6 1819) EVQLVESGGGLVQPGGSLTLSCVASGSTSSINAIGWYRRAPGKQRELVAGISSDGSKVYIDSVKGRFTISRDNAKNSVYLQMNSLRAEDTAVYYCYYFRTVSGSSYRYWGQGTLVTVSS shows DMS-153 TDCC EC50 of 60 pM or more.
NOT MET

Can 4H011 anti-DLL3 trispecific protein (other, also called 4H11; not shown: linker 1808, anti-albumin sdAb, linker 1808, anti-CD3 fragment, His6 1819) EVQLVESGGGLVQPGGSLTLSCAASGSSVSRLSMAWYRQAPGKKRELVAGISVDGSTDYIDSVKGRFTISRDNAKNSVYLQMNSLRAEDTAVYYCYAYRWTTRLTYWGQGTLVTVSS be said to have DMS-153 TDCC EC50 at or above 60 pM?
NOT MET

For this binder, is measured DMS-153 TDCC EC50 60 pM or higher? 1H012 anti-DLL3 trispecific protein (other, also called 1H12; not shown: linker 1808, anti-albumin sdAb, linker 1808, anti-CD3 fragment, His6 1819) EVQLVESGGGLVQPGGSLTLSCVASGSTSSINAMGWYRRAPGKQRELVAGISSDGSKVYVDSVKGRFTISRDNAKNSVYLQMNSLRAEDTAVYYCYYFRTVSGSSMPYWGQGTLVTVSS
NOT MET

More entries:
Is reported DMS-153 TDCC EC50 greater than or equal to 60 pM here: 3H011 anti-DLL3 trispecific protein (other, not shown: linker 1808, anti-albumin sdAb, linker 1808, anti-CD3 fragment, His6 1819) EVQLVESGGGLVQPGGSLTLSCAASGSSVKFLSMAWYRQAPGKKRELVAGISADGSTVYIDSVKGRFTISRDNAKNSVYLQMNSLRAEDTAVYYCYAYRWPTRYTYWGQGTLVTVSS
MET

# check: DMS-153 TDCC EC50 of 2E01 anti-DLL3 trispecific protein (other, not shown: linker 1808, anti-albumin sdAb, linker 1808, anti-CD3 fragment, His6 1819) EVQLVESGGGLVQPGGSLTLSCVASGSTSSINAMGWYRRAPFKQGELPAGISPDGTKAYADSAKVRFTISRDNAKNSVYLQMNSLRAEDTAVYYCYYFHTVCGTSMGYWGQGTLVTVSS is greater than or equal to 60 pM
NOT MET

Does the reported DMS-153 TDCC EC50 for 2E010 anti-DLL3 trispecific protein (other, not shown: linker 1808, anti-albumin sdAb, linker 1808, anti-CD3 fragment, His6 1819) EVQLVESGGGLVQPGGSLTLSCVASGSTSSINAMAWYRRAPGKQRELVAGISSDGSKVYADSVKGRFTISRDNAKNSVYLQMNSLRAEDTAVYYCYYFHTVSGSSMRYWGQGTLVTVSS fall at or above the 60 pM mark?
NOT MET

Assess whether reported DMS-153 TDCC EC50 for 4B07 anti-DLL3 trispecific protein (other, not shown: linker 1808, anti-albumin sdAb, linker 1808, anti-CD3 fragment, His6 1819) EVQLVESGGGLVQPGGSLTLSCAASGSSVGFLSMAWYRQAPGKKRELVAGISADGSTVYIDSVKGRFTISRDNAKNSVYLQMNSLRAEDTAVYYCYAYRWTTRYTYWGQGTLVTVSS sits at 60 pM or higher.
MET

Could you verify whether the entry 4B011 anti-DLL3 trispecific protein (other, not shown: linker 1808, anti-albumin sdAb, linker 1808, anti-CD3 fragment, His6 1819) EVQLVESGGGLVQPGGSLTLSCAASGSSVTFLSMAWYRQAPGKKRELVAGISADGSTVYIDSVKGRFTISRDNAKNSVYLQMNSLRAEDTAVYYCYAYRWTTRGTYWGQGTLVTVSS shows DMS-153 TDCC EC50 of no less than 60 pM?
NOT MET

Please check the record 3C04 anti-DLL3 trispecific protein (other, not shown: linker 1808, anti-albumin sdAb, linker 1808, anti-CD3 fragment, His6 1819) EVQLVESGGGLVQPGGSLTLSCAASGSHVSFLSMAWYRQAPGKKRELVAGISADGPTDYIDSVKGRFTISRDNAKNSVYLQMNSLRAEDTAVYYCYAYRWDTRYTYWGQGTLVTVSS and state if its DMS-153 TDCC EC50 is at or above 60 pM.
NOT MET

Is DMS-153 TDCC EC50 at least 60 pM? Consider 2E011 anti-DLL3 trispecific protein (other, not shown: linker 1808, anti-albumin sdAb, linker 1808, anti-CD3 fragment, His6 1819) EVQLVESGGGLVQPGGSLTLSCVASGSTSSINAIGWYRRAPGKQRELVAGISSDGSSVYADSVKGRFTISRDNAKNSVYLQMNSLRAEDTAVYYCYYFRRVSGSSMRYWGQGTLVTVSS
MET

Quick check, DMS-153 TDCC EC50 >= 60 pM? 4C06 anti-DLL3 trispecific protein (other, not shown: linker 1808, anti-albumin sdAb, linker 1808, anti-CD3 fragment, His6 1819) EVQLVESGGGLVQPGGSLTLSCAASNSSVSKLSMAWYRQAPGKKRELVAGISADGSTAYIDSVKGRFTISRDNAKNSVYLQMNSLRAEDTAVYYCYAYRWSTRYTYWGQGTLVTVSS
MET

Data credit: patent US20240141072A1
